Collected IC50 values appear next to each entry.
Tested on: human glioblastoma astrocytoma (U373) cells
ASSAY EXPLANATION: (Photo-)cytotoxicity on 2D cell monolayers, resazurin assay, U373
APPLIED CONDITIONS: read-out: IC50 480 nm (10 min, 3.1 J/cm^2); U373, irradiation 480 nm (10 min, 3.1 J/cm^2); compounds 1-3 as chloride salts
Give your result in µM as a bare value.

1. COc1ccc(/C=C/c2ccnc(-c3cc(/C=C/c4ccc(OC)cc4)ccn3)c2)cc1.COc1ccc(/C=C/c2ccnc(-c3cc(/C=C/c4ccc(OC)cc4)ccn3)c2)cc1.F[P-](F)(F)(F)(F)F.F[P-](F)(F)(F)(F)F.[Ru+2].c1ccc(-c2ccccn2)nc1 [Compound 5] :: 15.3

Proceed to the following item.
Value lookup for IC50; key = CN(C)c1ccc(/C=C/c2ccnc(-c3cc(/C=C/c4ccc(N(C)C)cc4)ccn3)c2)cc1.F[P-](F)(F)(F)(F)F.F[P-](F)(F)(F)(F)F.[Ru+2].c1ccc(-c2ccnc3c2ccc2c(-c4ccccc4)ccnc23)cc1.c1ccc(-c2ccnc3c2ccc2c(-c4ccccc4)ccnc23)cc1 [Compound 10]
1.8
